biological target: tetratricopeptide repeat (TPR) domain of human PEX5 (Gal4pBD-TPR, plasmid hP87) (Homo sapiens); test: two-hybrid; yeast strain PCY3 co-transformed with Gal4pAD-16mer (pGAD.GH) and Gal4pBD-TPR of PEX5 (pAH987 yeast or hP87 human); quantitative beta-galactosidase activity, cells grown in SC-leu-trp at 30°C; lower limit of around 10 Miller Units per mg protein for a productive interaction
No end group written: not given here.
readout name: beta-galactosidase activity (Units/mg protein)
Give a plain numeric answer without units written out.

Reference set (5 entries):
FDRDQNRVGLAEAARL (not fully specified (N-terminus)) [carboxy-terminal 16-mer of the precursor of lysosomal bovine cathepsin D (Gal4pAD-16mer)] = 310
HCKGKDLSKYLASCNL [carboxy-terminal 16-mer of dog lysozyme C from milk (Gal4pAD-16mer)] = 25
FAVDQRKLEDLLAAKL [carboxy-terminal 16-mer of E. coli transaldolase A (Gal4pAD-16mer)] = 566
RCKGTDVQAWIRGCRL [carboxy-terminal 16-mer of hen egg-white lysozyme (Gal4pAD-16mer)] = 73
LLMEKEDYHSLYQSHL [carboxy-terminal 16-mer of human tyrosinase (Gal4pAD-16mer)] = 242

Per the record, GMGRREGHPDVGPARL [carboxy-terminal 16-mer of Methanopyrus kandleri riboflavin synthase (Gal4pAD-16mer)] has beta-galactosidase activity (Units/mg protein) of 358

Per the record, LLMEAEDYQATYQSNL [carboxy-terminal 16-mer of frog tyrosinase (Gal4pAD-16mer)] has beta-galactosidase activity (Units/mg protein) of 91

Per the record, DINNTIDAARRVFAKL (not fully specified (N-terminus)) [carboxy-terminal 16-mer of Escherichia coli glutamate-1-semialdehyde 2,1-aminomutase (Gal4pAD-16mer)] has beta-galactosidase activity (Units/mg protein) of 473

Per the record, PLKDKQLYANEGVSRL (not fully specified (N-terminus)) [carboxy-terminal 16-mer of Drosophila sevenless protein (Gal4pAD-16mer)] has beta-galactosidase activity (Units/mg protein) of 29
